- System: LLCPK1-B64 cells or SaOS-2 cells
- protocol-summary: cAMP screen of substituted PTHrP(1-28) analogs (% parent)
- Format: cell-based
- cond: parent PTHrP(1-28)NH
Ends that are not written are not given here.

[
  {
    "substance": "R26-PTHrP(1-28) (AVSEHQLLHDKGKSIQDLRRRFFLHRLI-NH2) [R26-PTHrP(1-28)NH]",
    "value-unit": "% parent",
    "screen cAMP (% parent)": 143
  },
  {
    "substance": "E18-PTHrP(1-28) (AVSEHQLLHDKGKSIQDERRRFFLHHLI-NH2) [E18-PTHrP(1-28)NH]",
    "value-unit": "% parent",
    "screen cAMP (% parent)": 140
  },
  {
    "substance": "L25-PTHrP(1-28) (AVSEHQLLHDKGKSIQDLRRRFFLLHLI-NH2) [L25-PTHrP(1-28)NH]",
    "value-unit": "% parent",
    "screen cAMP (% parent)": 325
  },
  {
    "substance": "A18,22,I25,K26-PTHrP(1-28) (AVSEHQLLHDKGKSIQDARRRAFLIKLI-NH2) [A18, 22, I25, K26-PTHrP(1-28)NH]",
    "value-unit": "% parent",
    "screen cAMP (% parent)": 342
  },
  {
    "substance": "E18,A22,26-PTHrP(1-28) (AVSEHQLLHDKGKSIQDERRRAFLHALI-NH2) [E18, A22, 26-PTHrP(1-28)NH]",
    "value-unit": "% parent",
    "screen cAMP (% parent)": 190
  },
  {
    "substance": "A18,26,L22-PTHrP(1-28) (AVSEHQLLHDKGKSIQDARRRLFLHALI-NH2) [A18, 26, L22-PTHrP(1-28)NH]",
    "value-unit": "% parent",
    "screen cAMP (% parent)": 252
  },
  {
    "substance": "E18,L22,K26-PTHrP(1-28) (AVSEHQLLHDKGKSIQDERRRLFLHKLI-NH2) [E18, L22, K26-PTHrP(1-28)NH]",
    "value-unit": "% parent",
    "screen cAMP (% parent)": 264
  }
]

----------
- Tested on: MC3T3-E1 cells
- protocol-summary: cAMP in MC3T3-E1 cells, dose-response
- Type: cell-based
- cond: Table 3; read-out: dose-response cAMP in MC3T3-E1 (EC50)

[
  {
    "sequence-data": "AVSEHQLLHDKGKSIQDERRRAFLLKLIASI [E18, A22, L25, K26, S30-PTHrP(1-31)OH, E18,A22,L25,K26,S30-PTHrP(1-31)]",
    "target-desc": "MC3T3-E1 cells",
    "EC50 (nM)": 0.12
  },
  {
    "sequence-data": "AVSEHQLLHDKGKSIQDARRRAFLLKLIAEI [A18, 22, L25, K26-PTHrP(1-31)NH, A18,22,L25,K26-PTHrP(1-31)]",
    "target-desc": "MC3T3-E1 cells",
    "EC50 (nM)": 0.2
  },
  {
    "sequence-data": "AVSEHQLLHDKGKSIQDERRRAFLHHKIAE [E18, A22, K27-PTHrP(1-30)NH, E18,A22,K27-PTHrP(1-30)]",
    "target-desc": "MC3T3-E1 cells",
    "EC50 (nM)": 0.082
  },
  {
    "sequence-data": "AVSEHQLLHDKGKSIQDERRRAFLLKLIADI [E18, A22, L25, K26, D30-PTHrP(1-31)OH, E18,A22,L25,K26,D30-PTHrP(1-31)]",
    "target-desc": "MC3T3-E1 cells",
    "EC50 (nM)": 0.32
  },
  {
    "sequence-data": "AVSEHQLLHDKGKSIQDERRRAFLLKLIQDVHNF",
    "target-desc": "MC3T3-E1 cells",
    "EC50 (nM)": 0.56
  },
  {
    "sequence-data": "AVSEHQLLHDKGKSIQDERRRAFLLKLISEI [E18, A22, L25, K26, S29-PTHrP(1-31)OH, E18,A22,L25,K26,S29-PTHrP(1-31)]",
    "target-desc": "MC3T3-E1 cells",
    "EC50 (nM)": 0.41
  },
  {
    "sequence-data": "AVSEHQLLHDKGKSIQDARRRAFLHKLIAE [A18, 22, K26-PTHrP(1-30)NH, A18,22,K26-PTHrP(1-30)]",
    "target-desc": "MC3T3-E1 cells",
    "EC50 (nM)": 0.058
  },
  {
    "sequence-data": "AVSEHQLLHDKGKSIQDERRRAFLLKLIAAIHTA [E18, A22, L25, K26, A30-PTHrP(1-34)OH, E18,A22,L25,K26,A30-PTHrP(1-34)]",
    "target-desc": "MC3T3-E1 cells",
    "EC50 (nM)": 0.14
  },
  {
    "sequence-data": "AVSEHQLLHDKGKSIQDARRRAFLHKLIAEI [A18, 22, K26-PTHrP(1-31)NH, A18,22,K26-PTHrP(1-31)]",
    "target-desc": "MC3T3-E1 cells",
    "EC50 (nM)": 0.06
  },
  {
    "sequence-data": "AVSEHQLLHDKGKSIQDERRRAFLLKLIKEI [E18, A22, L25, K26, K29-PTHrP(1-31)OH, E18,A22,L25,K26,K29-PTHrP(1-31)]",
    "target-desc": "MC3T3-E1 cells",
    "EC50 (nM)": 0.28
  },
  {
    "sequence-data": "AVSEHQLLHDKGKSIQDERRRAFLLKLIAEL [E18, A22, L25, K26, L31-PTHrP(1-31)OH, E18,A22,L25,K26,L31-PTHrP(1-31)]",
    "target-desc": "MC3T3-E1 cells",
    "EC50 (nM)": 0.25
  },
  {
    "sequence-data": "AVSEHQLLHDKGKSIQDERRRAFLLKLIAEI [E18, A22, L25, K26-PTHrP(1-31)OH, E18,A22,L25,K26-PTHrP(1-31)]",
    "target-desc": "MC3T3-E1 cells",
    "EC50 (nM)": 0.78
  },
  {
    "sequence-data": "AVSEHQLLHDKGKSIQDERRRAFLLKLIAKI [E18, A22, L25, K26, K30-PTHrP(1-31)OH, E18,A22,L25,K26,K30-PTHrP(1-31)]",
    "target-desc": "MC3T3-E1 cells",
    "EC50 (nM)": 0.2
  }
]
